System: food intake (female rats)
protocol_notes: anorectic activity by the food intake method in the rat
Type: in vivo
measurement_context: po, os, 1 hour before food, food taken in first hour, read-out: ID50 (dose inhibiting by 50% the food intake)
Listing of entries alongside the reported ED50.

{"molecule": "Cc1cccc(CCN2CC=C(c3cccc(C(F)(F)F)c3)CC2)n1.Cl", "tested_target": "food intake (female rats)", "ED50 [mg/kg]": 5.69}
{"molecule": "Cl.[O-][n+]1ccc(CCN2CC=C(c3cccc(C(F)(F)F)c3)CC2)cc1", "tested_target": "food intake (female rats)", "ED50 [mg/kg]": 1.71}
{"molecule": "Cl.FC(F)(F)c1cccc(C2=CCN(CCc3cccnc3)CC2)c1", "tested_target": "food intake (female rats)", "ED50 [mg/kg]": 1.77}
{"molecule": "CCNC(C)Cc1cccc(C(F)(F)F)c1 (centres unmarked) [Fenfluramine, reference compound]", "tested_target": "food intake (female rats)", "ED50 [mg/kg]": 2.51}
{"molecule": "Cl.FC(F)(F)c1cccc(C2=CCN(CCc3ccncc3)CC2)c1", "tested_target": "food intake (female rats)", "ED50 [mg/kg]": 5.82}
{"molecule": "Cl.FC(F)(F)c1cccc(C2=CCN(CCc3cccc4ccccc34)CC2)c1", "tested_target": "food intake (female rats)", "ED50 [mg/kg]": 4.75}
{"molecule": "Cl.FC(F)(F)c1cccc(C2=CCN(CCc3ccc4ccccc4c3)CC2)c1", "tested_target": "food intake (female rats)", "ED50 [mg/kg]": 10.4}
{"molecule": "Cl.FC(F)(F)c1cccc(C2=CCN(CCc3ccccn3)CC2)c1", "tested_target": "food intake (female rats)", "ED50 [mg/kg]": 3.49}

---

protocol_notes: acute toxicity in the rat (LD50) by the oral or intraperitoneal route
measurement_context: in vivo, po, os

{"molecule": "Cl.FC(F)(F)c1cccc(C2=CCN(CCc3cccnc3)CC2)c1", "result_operator": "=", "LD50 [mg/kg]": 227}
{"molecule": "Cl.FC(F)(F)c1cccc(C2=CCN(CCc3ccccn3)CC2)c1", "result_operator": "=", "LD50 [mg/kg]": 195}
{"molecule": "CCNC(C)Cc1cccc(C(F)(F)F)c1 (centres unmarked) [Fenfluramine, reference compound]", "result_operator": "=", "LD50 [mg/kg]": 231}
{"molecule": "Cl.FC(F)(F)c1cccc(C2=CCN(CCc3ccc4ccccc4c3)CC2)c1", "result_operator": ">", "LD50 [mg/kg]": 800}
{"molecule": "Cl.FC(F)(F)c1cccc(C2=CCN(CCc3cccc4ccccc34)CC2)c1", "result_operator": ">", "LD50 [mg/kg]": 600}
{"molecule": "Cl.FC(F)(F)c1cccc(C2=CCN(CCc3ccncc3)CC2)c1", "result_operator": "=", "LD50 [mg/kg]": 289}
{"molecule": "Cc1cccc(CCN2CC=C(c3cccc(C(F)(F)F)c3)CC2)n1.Cl", "result_operator": "=", "LD50 [mg/kg]": 202}

---

protocol_notes: acute toxicity in the rat (LD50) by the oral or intraperitoneal route
measurement_context: in vivo, os, read-out: A/B (LD50/ID50, therapeutic index)
Listing of entries alongside the reported selectivity ratio.
measured_metric: selectivity ratio

{"molecule": "Cl.FC(F)(F)c1cccc(C2=CCN(CCc3cccc4ccccc34)CC2)c1 [Example 6, hydrochloride]", "measured_metric": "selectivity ratio", "result_operator": ">", "observed_measurement": 126}
{"molecule": "Cc1cccc(CCN2CC=C(c3cccc(C(F)(F)F)c3)CC2)n1.Cl [Example 4, hydrochloride]", "measured_metric": "selectivity ratio", "result_operator": "=", "observed_measurement": 35.6}
{"molecule": "Cl.FC(F)(F)c1cccc(C2=CCN(CCc3cccnc3)CC2)c1 [Example 2, hydrochloride]", "measured_metric": "selectivity ratio", "result_operator": "=", "observed_measurement": 128}
